- Test system: Ebolavirus
- assay-remarks: Antiviral activity against EBOV Kikwit infected in HeLa cells
- Type: functional, organism-based
- applied-conditions: Orthoebolavirus
property: EC50 (µM)
Numbers only; they are read as µM.

Per the record, Nc1ncnc2c([C@@H]3N[C@H](CO)[C@@H](O)[C@H]3O)c[nH]c12 has EC50 of 11.8

----------
Reported concentration at 24 h values are given for each entry in this list.
- assay-remarks: Drug concentration in BALB/c mouse brain at 10 mg/kg, ip measured upto 24 hrs by LC-MS/MS analysis
- Format: ADME, organism-based
- applied-conditions: read-out: Ct
Numbers only; they are read as nM.

O=C(Nc1ccccc1)c1ccc(-c2ccccc2OC2CCNCC2)s1	330

Per the record, O=C(Nc1ccccc1)c1ccc(-c2ccc(OC3CCNCC3)cc2)s1 has concentration at 24 h of 4430

----------
- assay-remarks: Selectivity index, ratio of CC50 for african green monkey Vero E6 cells to EC50 for EBOV-GP pseudotyped virus infected in Vero E6 cells
- Format: toxicity, cell-based
- applied-conditions: read-out: Ratio CC50/EC50
property: selectivity ratio

Per the record, O=C(Nc1ccccc1)c1ccc(-c2cccc(OC3CCNCC3)c2)s1 has selectivity ratio of 4.7

----------
- assay-remarks: Drug concentration in BALB/c mouse brain at 50 mg/kg, po measured upto 24 hrs by LC-MS/MS analysis
- Format: ADME, organism-based
- applied-conditions: read-out: Ct
property: concentration at 24 h (µM)
Numbers only; they are read as µM.

O=C(Nc1ccccc1)c1ccc(-c2ccccc2OC2CCNCC2)s1	0.81

Next up:
Per the record, O=C(Nc1ccccc1)c1ccc(-c2ccc(OC3CCNCC3)cc2)s1 has concentration at 24 h of 14.8

----------
- assay-remarks: Selectivity index, ratio of CC50 for african green monkey Vero E6 cells to EC50 for EBOV infected in Vero E6 cells
- Type: toxicity, cell-based
- applied-conditions: read-out: Ratio CC50/EC50
property: selectivity ratio
Kindly provide the number alone.

Per the record, NC(=O)c1nc(F)c[nH]c1=O has selectivity ratio of 14.9

----------
- assay-remarks: Cytotoxicity against african green monkey Vero E6 cells
- Type: toxicity, cell-based, Vero C1008
- applied-conditions: chlorocebus sabaeus
property: CC50

Per the record, NC(=O)c1nc(F)c[nH]c1=O has CC50 of > 1000 µM
